Exercise: state measured TGI for each of the compounds provided.
System: SF-295 CNS
Assay: NCI tumour cell line growth inhibition, 48 h
Respond numerically; units are µM and should not be typed.

In plain terms, `Fc1ccc(Nc2nc(Nc3ccc(-c4nc5ccccc5[nH]4)cc3)nc(N3CCCC3)n2)cc1` has a documented TGI of 4.37

In plain terms, `CC(C)(C)NNc1c([N+](=O)[O-])cnn(-c2ccccc2)c1=O` has a documented TGI of 20.1

====

Tested on: A549 NSCLC
Assay: NCI tumour cell line growth inhibition, 48 h; in the data active = GI50 below about 0.43 µM; inactive = the rest
The categories you may choose from are label 1 = active, label 0 = inactive

Ask: Hi, do you know how `CSC(=S)N/N=C(\C)c1ccccn1` came out in this test?
Reply: label 1

Ask: Hi, do you know how `CCN1C(=O)N(c2c(F)c(OC)cc(OC)c2F)Cc2cnc3[nH]c(CN4CCOCC4)cc3c21` came out in this test?
Reply: label 0

Ask: Hi, do you know how `COc1ccccc1Nc1nc(-c2cc3cccc(C(F)(F)F)c3oc2=O)cs1` came out in this test?
Reply: label 1

Ask: Hi, do you know how `C=C1C(=O)O[C@H]2[C@H]1CC/C(Cn1cc(CCC)nn1)=C\CC[C@@]1(C)O[C@@H]21` came out in this test?
Reply: label 0

Ask: Hi, do you know how CC(CN(CP(=O)([O-])[O-])CP(=O)([O-])[O-])N(CP(=O)([O-])[O-])CP(=O)([O-])[O-].N[C@@H]1CCCC[C@@H]1N.[Pt+2] (centres undefined) came out in this test?
Reply: label 0

Ask: Hi, do you know how `Cc1ccc(/C=C2\CCOC2=O)cc1` came out in this test?
Reply: label 0

Ask: Hi, do you know how `N#C/C(=C/N1CCN(C(=O)c2ccco2)C1=S)C(N)=O` came out in this test?
Reply: label 0

Ask: Hi, do you know how `C=C1C(=O)O[C@H]2[C@H]1CC/C(COC(=O)CCC(=O)OC/C1=C/CC[C@@]3(C)O[C@H]3[C@H]3OC(=O)C(=C)[C@@H]3CC1)=C\CC[C@@]1(C)O[C@@H]21` came out in this test?
Reply: label 0

Ask: Hi, do you know how `O=C1c2cc3c(cc2-c2c1c1ccc([N+](=O)[O-])cc1c(=O)n2CCCCl)OCO3` came out in this test?
Reply: label 0

====

System: EKVX NSCLC
Test: NCI tumour cell line growth inhibition, 48 h
observable: TGI

In plain terms, `COC(=O)c1c(C)nc(C)c(N=O)c1-c1ccccc1C(F)(F)F` has a documented TGI of > 100 µM

In plain terms, `COc1cc2c(/C=C3\C(=O)Nc4ccc(Br)cc43)c(Cl)n(C)c2cc1C` has a documented TGI of 34.1 µM

In plain terms, Cc1cc(Cl)ccc1NC(=O)C1C(=O)N(c2ccc(Cl)cc2C)C(=O)/C1=N\N (centres undefined) has a documented TGI of > 100 µM

In plain terms, `CCCCc1ccc(N2C(=O)c3cc(C)cnc3S2(=O)=O)cc1` has a documented TGI of > 100 µM

In plain terms, `O=C1c2cccc3cccc(c23)C(=O)N1CCCCOc1ccc(-c2nc3ccc(N4CCOCC4)cc3[nH]2)cc1` has a documented TGI of > 57.9 µM

In plain terms, `Cc1cc(S(N)(=O)=O)c(S/C(=N\NS(=O)(=O)c2ccc(Cl)cc2)c2ccc(Cl)cc2)cc1Cl` has a documented TGI of > 100 µM

In plain terms, `C=C1C(=O)O[C@H]2[C@H]1CC/C(Cn1cc(CCC)nn1)=C\CC[C@@]1(C)O[C@@H]21` has a documented TGI of 23.6 µM

In plain terms, `CC1=C(C)C(=O)C(C(C)C2=C(C)C(=O)C(C)=C(C)C2=O)=C(C)C1=O` has a documented TGI of > 100 µM

In plain terms, `O=[N+]([O-])c1ccccc1S(=O)(=O)N1CCCc2cc(Cl)ccc21` has a documented TGI of > 100 µM

Source: PubChem BioAssay (NCI)
